FYI, the data here is from patent US8148422B2.

Biological target: canine TRPM8 (Canis lupus familiaris, UniProt Q1A7N1)
Construct: expressed in transfected cells
Sequence (Q1A7N1 1-1104): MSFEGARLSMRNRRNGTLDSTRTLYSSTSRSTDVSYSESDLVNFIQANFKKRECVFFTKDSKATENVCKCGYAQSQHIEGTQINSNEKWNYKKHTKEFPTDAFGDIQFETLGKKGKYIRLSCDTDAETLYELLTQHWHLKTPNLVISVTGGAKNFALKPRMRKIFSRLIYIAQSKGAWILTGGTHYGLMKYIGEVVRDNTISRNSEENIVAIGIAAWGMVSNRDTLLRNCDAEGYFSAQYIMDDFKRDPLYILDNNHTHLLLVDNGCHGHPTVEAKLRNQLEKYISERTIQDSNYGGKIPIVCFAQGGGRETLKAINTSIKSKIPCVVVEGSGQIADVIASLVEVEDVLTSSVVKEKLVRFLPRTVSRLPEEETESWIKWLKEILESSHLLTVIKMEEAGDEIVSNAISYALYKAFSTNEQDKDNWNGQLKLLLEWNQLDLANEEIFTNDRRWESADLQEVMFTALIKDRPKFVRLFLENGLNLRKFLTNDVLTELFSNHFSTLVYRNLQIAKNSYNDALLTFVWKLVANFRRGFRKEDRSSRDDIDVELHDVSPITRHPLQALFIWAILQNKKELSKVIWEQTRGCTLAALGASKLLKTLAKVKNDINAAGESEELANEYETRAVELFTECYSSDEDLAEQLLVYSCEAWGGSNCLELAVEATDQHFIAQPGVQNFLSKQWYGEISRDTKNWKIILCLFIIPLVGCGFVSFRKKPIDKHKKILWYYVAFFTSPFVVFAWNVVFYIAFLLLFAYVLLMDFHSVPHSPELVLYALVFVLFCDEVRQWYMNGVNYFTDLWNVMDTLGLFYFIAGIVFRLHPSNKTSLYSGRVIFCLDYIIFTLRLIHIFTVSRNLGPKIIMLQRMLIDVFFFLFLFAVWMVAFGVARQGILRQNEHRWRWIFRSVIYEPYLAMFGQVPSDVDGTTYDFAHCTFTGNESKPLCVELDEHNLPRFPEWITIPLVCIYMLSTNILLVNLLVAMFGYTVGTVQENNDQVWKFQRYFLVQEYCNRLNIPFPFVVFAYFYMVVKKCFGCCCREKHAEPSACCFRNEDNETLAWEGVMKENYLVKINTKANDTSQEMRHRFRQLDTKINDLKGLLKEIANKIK
Assay: In vitro canine TRPM8 functional assay (Ca2+-sensitive fluorescent dye, FLIPR or FDSS, icilin challenge)
Type: cell-based
Conditions: HEK293 cells stably expressing canine TRPM8; icilin at approx. 80% maximal response; eight-point dose-response; single determinations unless otherwise noted; read-out: IC50
endpoint_label: pIC50
// returns pIC50 (minus log10 of molar concentration), number only

// query pIC50 value for entry CCCN(CCC)CCS(=O)(=O)N(Cc1ccc(OC(F)(F)F)cc1)c1cc2ccccc2s1
6.94

// query pIC50 value for entry CCOC(=O)C1CCN(CCS(=O)(=O)N(Cc2ccc(OC(F)(F)F)cc2)c2sc3ccccc3c2C)CC1
7.80

// query pIC50 value for entry Cc1c(N(Cc2ccc(OC(F)(F)F)cc2)S(=O)(=O)CCNCC(F)(F)F)sc2ccccc12
7.85

// query pIC50 value for entry Cc1c(N(CCC2CC2)S(=O)(=O)CCN(CC(C)C)CC(C)C)sc2ccccc12
7.77

// query pIC50 value for entry CCCN(CCS(=O)(=O)N(Cc1ccc(OC(F)(F)F)cc1)c1sc2ccccc2c1C)CC(C)C
7.80

// query pIC50 value for entry CC(=O)N1CCN(CCS(=O)(=O)N(Cc2ccc(OC(F)(F)F)cc2)c2sc3ccccc3c2C)CC1
7.92

// query pIC50 value for entry Cc1c(N(Cc2ccc(OC(F)(F)F)cc2)S(=O)(=O)CCN2CCN(c3ccccc3)CC2)sc2ccccc12
7.48

// query pIC50 value for entry CC(C)CN(CCS(=O)(=O)N(Cc1ccc(OC(F)(F)F)cc1)c1ccc2ccccc2c1)CC(C)C
6.82

// query pIC50 value for entry Cc1c(N(Cc2ccc(F)c(F)c2)S(=O)(=O)CCN(CC(C)C)CC(C)C)sc2ccccc12
7.59

// query pIC50 value for entry CCCCN(CCCC)CCS(=O)(=O)N(Cc1ccc(OC(F)(F)F)cc1)c1sc2ccccc2c1Br
7.42

// query pIC50 value for entry Cc1c(N(Cc2ccc(OC(F)(F)F)cc2)S(=O)(=O)CCN(C)CC(C)C)sc2ccccc12
7.66

// query pIC50 value for entry CCCN(CCC)CCS(=O)(=O)N(Cc1ccc(OC(F)(F)F)cc1)c1sc2ccccc2c1Br
7.66

// query pIC50 value for entry Cc1c(N(Cc2ccc(OC(F)(F)F)cc2)S(=O)(=O)CCN2[C@H](C)CCC[C@@H]2C)sc2ccccc12
7.89

// query pIC50 value for entry CCOC(=O)C1CCN(CCS(=O)(=O)N(CCC2CC2)c2sc3ccccc3c2C)CC1
7.14

// query pIC50 value for entry Cc1c(N(Cc2ccc(F)c(F)c2)S(=O)(=O)CCN(C)Cc2ccccc2)sc2ccccc12
7.44

// query pIC50 value for entry Cc1c(N(Cc2ccc(OC(F)(F)F)cc2)S(=O)(=O)CCN2CCNC(=O)CC2)sc2ccccc12
7.57

###

Molecular target: canine TRPM8 (Canis lupus familiaris, UniProt Q1A7N1)
Construct: expressed in transfected cells
Experiment: In vitro canine TRPM8 functional assay (Ca2+-sensitive fluorescent dye, FLIPR or FDSS, icilin challenge)
Format: cell-based
Details: 0.2 μM compound; HEK293 cells stably expressing canine TRPM8; icilin challenge
endpoint_label: inhibition at 0.2 µM (%)
Give a bare numeral; the unit % is implied.

// query inhibition at 0.2 µM value for entry Cc1c(N(Cc2ccc(OC(F)(F)F)cc2)S(=O)(=O)CCN2C[C@@H](C)O[C@@H](C)C2)sc2ccccc12
100

// query inhibition at 0.2 µM value for entry Cc1c(N(Cc2ccc(OC(F)(F)F)cc2)S(=O)(=O)CCN(C)CCc2ccccc2)sc2ccccc12
98

// query inhibition at 0.2 µM value for entry Cc1c(N(Cc2ccc(OC(F)(F)F)cc2)S(=O)(=O)CCN(C)CCO)sc2ccccc12
98

// query inhibition at 0.2 µM value for entry Cc1c(N(Cc2ccc(OC(F)(F)F)cc2)S(=O)(=O)CCN(C(C)C)C(C)C)sc2ccccc12
100

// query inhibition at 0.2 µM value for entry CCOC(=O)CNCCS(=O)(=O)N(Cc1ccc(OC(F)(F)F)cc1)c1sc2ccccc2c1C
83

// query inhibition at 0.2 µM value for entry Cc1c(N(Cc2ccc(OC(F)(F)F)cc2)S(=O)(=O)CCN(CC(C)C)CC(C)C)sc2ccccc12
101

// query inhibition at 0.2 µM value for entry Cc1c(N(Cc2ccc(OC(F)(F)F)cc2)S(=O)(=O)CCN2CCC[C@@H]2C(F)(F)F)sc2ccccc12
100

// query inhibition at 0.2 µM value for entry CC(C)CN(CCS(=O)(=O)N(Cc1ccc(OC(F)(F)F)cc1)c1sc2ccccc2c1Br)CC(C)C
101

// query inhibition at 0.2 µM value for entry O=S(=O)(CCN1CCCCC1)N(Cc1ccc(OC(F)(F)F)cc1)c1sc2ccccc2c1Cl
97

// query inhibition at 0.2 µM value for entry Cc1c(N(Cc2ccc(OC(F)(F)F)cc2)S(=O)(=O)CCN2CCCC(C(F)(F)F)C2)sc2ccccc12 (stereo not shown)
99
